meta.source: paper PMC2009384

# Test system: newborn Swiss mice
# assayInfo: Experiment II: carcinogenicity in newborn mice, chrysene, 7-methylbenz(a)anthracene and K region epoxides (s.c. injection, tumour incidence to 70-75 weeks)
# assayContext: females; 100 µg per treatment, 3 treatments (Days 0, 1 and 2) s.c. in PEG 400
measurementType: No. of survivors at 50 weeks

c1ccc2c(c1)-c1ccccc1C1OC21 (centres unmarked) [phenanthrene 9,10-oxide] = 13
Cc1c2ccccc2cc2c1ccc1ccccc12 [7-Methylbenz(a)anthracene, reference compound] = 21
c1ccc2c(c1)-c1ccc3ccccc3c1C1OC21 (centres unmarked) [Chrysene 5,6-oxide] = 22
Cc1c2c(cc3ccccc13)-c1ccccc1C1OC21 (centres unmarked) [7-Methylbenz(a)anthracene 5,6-oxide] = 25
c1ccc2c(c1)ccc1c3ccccc3ccc21 [Chrysene, reference compound] = 22

====

# Lookup of reported No. of mice examined at p.m. from 50-70th week with lung tumours keyed by entry
# System: newborn Swiss mice
# assayInfo: Experiment II: carcinogenicity in newborn mice, chrysene, 7-methylbenz(a)anthracene and K region epoxides (s.c. injection, tumour incidence to 70-75 weeks)
# assayContext: females; 100 µg per treatment, 3 treatments
measurementType: No. of mice examined at p.m. from 50-70th week with lung tumours

Cc1c2c(cc3ccccc13)-c1ccccc1C1OC21 (stereo not drawn) [7-Methylbenz(a)anthracene 5,6-oxide] = 1
c1ccc2c(c1)-c1ccc3ccccc3c1C1OC21 (stereo not drawn) [Chrysene 5,6-oxide] = 0
c1ccc2c(c1)ccc1c3ccccc3ccc21 [Chrysene, reference compound] = 0
